assay: Pharmacokinetic measurements in rats, intra-tracheal dosing; format: in vivo; conditions: male, CD, rat, lung/plasma, other: intra-tracheal; read-out: lung/plasma conc ratio at time 6 h
Record form. Attribute: Kp at 6 h. Fill in for each entry.

Lab note: measured Kp at 6 h of COC(=O)c1cc2c(cc1C)/C(=C(/Nc1ccc(C(=O)NCC(=O)N3CCN(CCO)CC3)cc1)c1ccccc1)C(=O)N2 [Example 7] was > 35

Lab note: measured Kp at 6 h of COC(=O)c1cc2c(cc1C)/C(=C(/Nc1ccc(C(=O)NCCN3CCC(N(C)C)CC3)cc1)c1ccccc1)C(=O)N2 [Example 6] was > 4600

Lab note: measured Kp at 6 h of COC(=O)c1cc2c(cc1C)/C(=C(/Nc1ccc(C(=O)NCCN3CCCN(C)CC3)cc1)c1ccccc1)C(=O)N2 [Example 5] was > 606

---

assay: Pharmacokinetic measurements in rats, intra-tracheal dosing; assay type: in vivo; conditions: rat, i.t. versus i.v., 0.1 h
endpoint: Lung conc i.t./i.v. Ratio at time 0.1 h

Lab note: measured Lung conc i.t./i.v. Ratio at time 0.1 h of COC(=O)c1cc2c(cc1C)/C(=C(/Nc1ccc(C(=O)NCCN3CCNC(=O)C3)cc1)c1ccccc1)C(=O)N2 [Example 9] was 12

Lab note: measured Lung conc i.t./i.v. Ratio at time 0.1 h of COC(=O)c1cc2c(cc1C)/C(=C(/Nc1ccc(C(=O)NCC3CCN(C)CC3)cc1)c1ccccc1)C(=O)N2 [Example 3] was 3

Lab note: measured Lung conc i.t./i.v. Ratio at time 0.1 h of COC(=O)c1cc2c(cc1C)/C(=C(/Nc1ccc(C(=O)NCCN3CCCN(C)CC3)cc1)c1ccccc1)C(=O)N2 [Example 5] was 7

Lab note: measured Lung conc i.t./i.v. Ratio at time 0.1 h of COC(=O)c1cc2c(cc1C)/C(=C(/Nc1ccc(C(=O)NCCN3CCC(N(C)C)CC3)cc1)c1ccccc1)C(=O)N2 [Example 6] was 9.8

---

assay: Pharmacokinetic measurements in rats, intravenous dosing; type: in vivo; conditions: male, CD, rat, lung, iv; read-out: lung concentration (nM) at time 24 h
Record form. Attribute: concentration at 24 h. Fill in for each entry.
Report the figure in nM without appending any unit label.

Lab note: measured concentration at 24 h of "COC(=O)c1cc2c(cc1C)/C(=C(/Nc1ccc(C(=O)NCCN3CCC(N(C)C)CC3)cc1)c1ccccc1)C(=O)N2" was 837

Lab note: measured concentration at 24 h of "COC(=O)c1cc2c(cc1C)/C(=C(/Nc1ccc(C(=O)NCCN3CCCN(C)CC3)cc1)c1ccccc1)C(=O)N2" was 247

---

assay: Pharmacokinetic measurements in rats, intravenous dosing; type: in vivo; conditions: male, CD, rat, lung/plasma, iv; read-out: lung/plasma ratio at time 24 h
endpoint: Kp at 24 h

Lab note: measured Kp at 24 h of COC(=O)c1cc2c(cc1C)/C(=C(/Nc1ccc(C(=O)NCCN3CCCN(C)CC3)cc1)c1ccccc1)C(=O)N2 [Example 5] was > 140

Lab note: measured Kp at 24 h of COC(=O)c1cc2c(cc1C)/C(=C(/Nc1ccc(C(=O)NCCN3CCC(N(C)C)CC3)cc1)c1ccccc1)C(=O)N2 [Example 6] was > 492
